# protocolText: soluble on expression in E. coli; label from the status in PepcDB or PDB records
measuredEndpoint: soluble on expression in E. coli

orderedresidues=MGSDKIHHHHHHMLNMSNVPNDSVEEDGRLPTGKLPSAIGKNHRIAVVDTHFHLWKSQEIAPPSGIMADPSLFRDFDWSDYELAMQGVALEAAIHVQVHHGSEKAKSEYGRVERFAAEHAPIAGMIAWAPLESPGVEREIAELAQSPLVAGVRRLTQQEPDELFCARPQFVAGAKLLASYGLVCEVCVLEHQLKGVIALASACPELTIILDHLGKPHLAEPPTEHWLENMRILGMLENVVCKVAPTPLWASDPPLTAAHAAPFIEYVAEHFGWDRLIYGSNWPPLRILTDDASQWADIVFKTLHWAKADELGRLFSENARRIFRLNKGHR datavalue="not soluble"
orderedresidues=AHHHHHHGSYDELFKKIKEKAKFVDEKLLSLIPEKEPKILYEAARHYPLAGGKRVRPFVVLTATEAVGGEWEKAIYPAVAIELIHNYSLVHDDIMDMDETRRGRPTVHKVWGINMAILAGDLLFSKAFEAISRAEIPPEKKARVLETVVKASNELCEGQAMDLEFEKRDTVTIEEYMRMISGKTGALFDASAKVGGIVGTDNEEYINALSTWGRNVGIAFQIWDDVLDLIADEEKLGKPVGSDIRKGKKTLIVAHFFENADEKDKQKFLKVFGKYAGDVKGEGIIEEDIKAEVMEAIDLLKKYGSIDYAANIAREMVKKANEALKVLPESEARKDLELLARFIVEREY datavalue=soluble
orderedresidues=GTPLSSDEKIRVLVWNIFKQQRAEWQSVLKNFGKDAHLVLLQEAQTTPELVRFATSNYLAADQVPALVLPQHPSGVMTLASAHPIYCCPLREREPILRLPKSALVTVYPLPDARLLMVVNIHAVNFSLGVDVYSKQLLPIGDQIAHHSGPVIMAGDFNAWSRPRMNALYRFAREMSLREVRFSDDQRRRAFGRPLDFVFYRGLSVHDASVLVTRASDHNPLLVEFSPGKP datavalue="not soluble"
orderedresidues=MAGYALKRLMTEYKELTTRPPEGIIAAPIDEDNFFEWECLITGPEETCFANGVFPARITFPQDYPLSPPKMRFTCGIFHPNIYADGRVCISILHAPGDDPTGYELSNERWSPVQSIEKILLSVVSMLAEPNDESPANVSAAKMWREDRAQFEKIADSLVRKTLCLPASEV datavalue="not soluble"
orderedresidues=MLTQEHINIIKSTIPLLESAGPALTQHFYQRMFSHNPELKHIFNMTHQKTGRQSVALFEAIAAYAKHIDNLAALTSAVERIAHKHTSFNIQPEHYQIVGHHLLETLRELAPDAFTQPVEEAWTAAYFFLAQVFIDREGALYLERKQALGGWRDGRTFVVREKQVESAYVTSFVLVPADGGAVLDYQPGQYIGIEVTPEGSDYREIRQYSLSHASNGREYRISVKREGVGSDNPGLVSHYLHNNVKVGDSVKLYAPAGDFFYVERERPVVLISAGVGATPMQAILHTLAKQNKSGVTYLYACNSAKEHTFAQETAQLIAQQGWMQQVWYRDESADDVLQGEMQLAELILPIEDGDFYLCGPIGFMQYVVKQLLALGVDKARIHYEVFGPHAQLAA datavalue="not soluble"
orderedresidues=MSLQTKHIDDLKEALMCQRNNDDKLEDLVGKIVNDYHTYAGKRSELSYRCCAHYFAPSWNTPIENSMLWMGGCRPSSFIRLIYALCGSQAETQLSQYLLKIDDDFDINHGGFMSDLTATQLGKLNDLHLEVIKKEDKITKTSANFQDDVADLPIADVVHADVAVEDALDKHEEGMAVLLAEADKLRFETLRKIVDVVTPLQAVEFLLAGKRLQLSLHDRGRVRADVCGGVGGAAV datavalue=soluble
orderedresidues=MSLTPSIISIQSQVVHGHVGNSAAVLPMQGHGVTVAAVPTTLLSNHPGFETVRGRVLESELVGDLLRGVEERGLIETSGYIVSGYLGSRANGEVVASFVKRARRLNPDITYICDPVMGDAALGVFVADQVVSCLCDDLIPLADLLTPNQFEVGLIAGRPLSTWRELEAAVLKIRAPRGARLVVTGCALSDTPDGALENIVFDDKTHTRLTSPRLPLAPAGTGDLYTGLLTAKLARGHTLVEAACHAATSVLDVLQQTMAAGEHEMQLARAITTLGPACKETSEGHHHHHH datavalue=soluble
orderedresidues=MGSDKIHHHHHHMLNFYPGPSKLHANIDLHLQQAITSGILSMNHRSMDFMQLYQQVQENFEQFYDLPKDYKVYFTSAATECWTILAQSFPNRSFLHLYNGSFGKKWMEVSKQLEVEHTSVVFDIHGELPVTEINPDTAAEIVCTTLVETSNGTFLSKDIQAAVRETFSDALIAVDATSALAGLSVTWEHADIWFASVQKCFGLPSGLGILILSPTAQHTVEFRSKDIHYNSLKRIVENGASFQTTHTPNILGIYLLAQRLKEIDVTEFFNRNERMNYLYNHFSSHPSLQPLIIEKSVQSATVLTLKGDEEYIKQVKKSLKAQDIIIGSGYGVWKENTIRLANFPAHTDEDFKKLLLVI datavalue="not soluble"
orderedresidues=MQSLIGLMRPETGKKLENLNHFIQQFEKVLIAFSGGVDSSTLAAVCSNAGVEVLAVTVLSSVSPRREMEEAKRIAEELGVRHEFLKIDLMDEDFRRNDENRCYYCKRRVLSALVEEAKKRGIEVVLEGTNASDLSDHRPGYRAVRELDGVNSPWVEFGITKEEIREIARSMGYSFHDKPSMACLASRIPFGIEIDEEKLKMVDEAEEAVIELAGVKQVRVRNYDGVAVVEVAGDELRKLLNCAEKVRDKLKKIGFRAVLIDLEGYRSGKRLFKF datavalue="not soluble"
orderedresidues=SAEAGTGEPSPSVEGEHGTEYDTLPSDTVSLSDSDSDLSLPGGAEVEALSPMGLPGEEDSGPDEPPSPPSGLLPATVQPFHLRGMSSTFSQRSRDIFDCLEGAARRAPSSVAHTSMSDNGGFKRPLAPSGRSPVEGLGRAHRSPASPRVPPVPDYVAHPERWTKYSLEDVTEVSEQSNQATALAFLGSQSLAAPTDCVSSFNQDPSSCGEGRVIFTKPVRGVEARHERKRVLGKVGEPGRGGLGNPATDRGEGPVELAHLAGPGSPEAEEWGSPHGGLQEVEALSGSVHSGSVPGLPPVETVGFHGSRKRSRDHFRNKSSSPEDPGAEV datavalue=soluble
